# System: HDFB
# method_notes: growth inhibition relative to DMSO control (fraction); higher = stronger growth inhibition
# measurement_setup: GSK-LSD1 concentration 10 nM; partner concentration 100 nM; treatment time: 6 days
property_name: growth inhibition
When you answer, write just the number.

Sample records with growth inhibition:
c1ccc([C@@H]2C[C@H]2NC2CCNCC2)cc1 [GSK-LSD1] + CN1CCN(c2ccc(-c3cccc(CN4CCOCC4)c3)cc2NC(=O)c2c[nH]c(=O)cc2C(F)(F)F)CC1 [OICR9429]	0.0911
c1ccc([C@@H]2C[C@H]2NC2CCNCC2)cc1 [GSK-LSD1] + Cc1sc2c(c1C)C(c1ccc(Cl)cc1)=N[C@@H](CC(=O)OC(C)(C)C)c1nnc(C)n1-2 [(+)-JQ1]	0.531
c1ccc([C@@H]2C[C@H]2NC2CCNCC2)cc1 [GSK-LSD1] + CCOC(=O)NCCCC(=O)NCCc1ccccc1 [Santacruzamate A]	0.109

INPUT: Which growth inhibition reading was recorded for the compound c1ccc([C@@H]2C[C@H]2NC2CCNCC2)cc1 [GSK-LSD1] + Nc1ccccc1NC(=O)c1ccc(CNC(=O)OCc2cccnc2)cc1 [Entinostat] ?
OUTPUT: 0.421

INPUT: Query: growth inhibition; subject: c1ccc([C@@H]2C[C@H]2NC2CCNCC2)cc1 [GSK-LSD1] + O=C(NC[C@H](O)CN1CCc2ccccc2C1)c1ccnc(NC2CCC2)c1 [GSK591]
OUTPUT: 0.215

INPUT: Need growth inhibition, item c1ccc([C@@H]2C[C@H]2NC2CCNCC2)cc1 [GSK-LSD1] + Cc1cc2c(cc1N1C(=O)c3cccc4c(CCCO)ccc(c34)C1=O)n(C)c(=O)n2C [BAY299]
OUTPUT: 0.207

* * *

# System: HDFB
# method_notes: cell viability relative to DMSO control; higher = less growth inhibition
# measurement_setup: log10 concentration (M): -4; treatment time: 6 days
property_name: cell viability

CCOC(=O)NCCCC(=O)NCCc1ccccc1 [Santacruzamate A]	41.6%

# context switch: different molecule, same cell viability
INPUT: # cell viability lookup, item Cc1cc2c(cc1N1C(=O)c3cccc4c(CCCO)ccc(c34)C1=O)n(C)c(=O)n2C
OUTPUT: 31.2%

* * *

# System: HDFB
# method_notes: growth inhibition relative to DMSO control (fraction); higher = stronger growth inhibition
# measurement_setup: GSK-LSD1 concentration 10 nM; partner concentration 10000 nM; treatment time: 6 days
property_name: growth inhibition
Output spec: single numeric token, no unit.

Reference set, count: 2
c1ccc([C@@H]2C[C@H]2NC2CCNCC2)cc1 [GSK-LSD1] + Cc1sc2c(c1C)C(c1ccc(Cl)cc1)=N[C@@H](CC(=O)OC(C)(C)C)c1nnc(C)n1-2 [(+)-JQ1]	0.792
c1ccc([C@@H]2C[C@H]2NC2CCNCC2)cc1 [GSK-LSD1] + CN1CCN(c2ccc(-c3cccc(CN4CCOCC4)c3)cc2NC(=O)c2c[nH]c(=O)cc2C(F)(F)F)CC1 [OICR9429]	0.651

INPUT: Recorded growth inhibition for c1ccc([C@@H]2C[C@H]2NC2CCNCC2)cc1 [GSK-LSD1] + O=C(NC[C@H](O)CN1CCc2ccccc2C1)c1ccnc(NC2CCC2)c1 [GSK591] with HDFB, please?
OUTPUT: 0.42

* * *

# Tested on: MKL-1
# method_notes: growth inhibition relative to DMSO control (fraction); higher = stronger growth inhibition
# measurement_setup: GSK-LSD1 concentration 1 nM; partner concentration 1 nM; treatment time: 6 days
# growth inhibition per entry
Write the value as a bare number.

The following compounds have reported results that may help.
c1ccc([C@@H]2C[C@H]2NC2CCNCC2)cc1 [GSK-LSD1] + Cc1cc2c(cc1N1C(=O)c3cccc4c(CCCO)ccc(c34)C1=O)n(C)c(=O)n2C [BAY299]	0.0952
c1ccc([C@@H]2C[C@H]2NC2CCNCC2)cc1 [GSK-LSD1] + Cc1sc2c(c1C)C(c1ccc(Cl)cc1)=N[C@@H](CC(=O)OC(C)(C)C)c1nnc(C)n1-2 [(+)-JQ1]	-0.0162
c1ccc([C@@H]2C[C@H]2NC2CCNCC2)cc1 [GSK-LSD1] + Nc1ccccc1NC(=O)c1ccc(CNC(=O)OCc2cccnc2)cc1 [Entinostat]	0.169
c1ccc([C@@H]2C[C@H]2NC2CCNCC2)cc1 [GSK-LSD1] + CCOC(=O)NCCCC(=O)NCCc1ccccc1 [Santacruzamate A]	0.0627
c1ccc([C@@H]2C[C@H]2NC2CCNCC2)cc1 [GSK-LSD1] + O=C(NC[C@H](O)CN1CCc2ccccc2C1)c1ccnc(NC2CCC2)c1 [GSK591]	0.148

# next compound below
INPUT: Request - read-out growth inhibition | tested on MKL-1 | compound c1ccc([C@@H]2C[C@H]2NC2CCNCC2)cc1 [GSK-LSD1] + CN1CCN(c2ccc(-c3cccc(CN4CCOCC4)c3)cc2NC(=O)c2c[nH]c(=O)cc2C(F)(F)F)CC1 [OICR9429]
OUTPUT: 0.0967

* * *

# Test system: HDFB
# method_notes: growth inhibition relative to DMSO control (fraction); higher = stronger growth inhibition
# measurement_setup: GSK-LSD1 concentration 0 nM; partner concentration 1000 nM; treatment time: 6 days
property_name: growth inhibition
Kindly provide the number alone.

Reference set (3 entries):
c1ccc([C@@H]2C[C@H]2NC2CCNCC2)cc1 [GSK-LSD1] + CN1CCN(c2ccc(-c3cccc(CN4CCOCC4)c3)cc2NC(=O)c2c[nH]c(=O)cc2C(F)(F)F)CC1 [OICR9429]	0.11
c1ccc([C@@H]2C[C@H]2NC2CCNCC2)cc1 [GSK-LSD1] + CCOC(=O)NCCCC(=O)NCCc1ccccc1 [Santacruzamate A]	0.025
c1ccc([C@@H]2C[C@H]2NC2CCNCC2)cc1 [GSK-LSD1] + Cc1cc2c(cc1N1C(=O)c3cccc4c(CCCO)ccc(c34)C1=O)n(C)c(=O)n2C [BAY299]	0.607

Now look at this entry.
INPUT: Name the recorded growth inhibition for c1ccc([C@@H]2C[C@H]2NC2CCNCC2)cc1 [GSK-LSD1] + Cc1sc2c(c1C)C(c1ccc(Cl)cc1)=N[C@@H](CC(=O)OC(C)(C)C)c1nnc(C)n1-2 [(+)-JQ1] .
OUTPUT: 0.743

* * *

Collected cell viability values appear next to each entry.
# Test system: HDFB
# method_notes: cell viability relative to DMSO control; higher = less growth inhibition
# measurement_setup: log10 concentration (M): -4; treatment time: 6 days
Kindly provide the numeric value in % only, without the unit symbol.

Consider the worked cases shown below.
Nc1ccccc1NC(=O)c1ccc(CNC(=O)OCc2cccnc2)cc1 [Entinostat]	0.192
O=C(NC[C@H](O)CN1CCc2ccccc2C1)c1ccnc(NC2CCC2)c1 [GSK591]	91.5
CN1CCN(c2ccc(-c3cccc(CN4CCOCC4)c3)cc2NC(=O)c2c[nH]c(=O)cc2C(F)(F)F)CC1 [OICR9429]	42.7

INPUT: Entry Cc1sc2c(c1C)C(c1ccc(Cl)cc1)=N[C@@H](CC(=O)OC(C)(C)C)c1nnc(C)n1-2 [(+)-JQ1] has what cell viability?
OUTPUT: 0.0326

Source listed as the supplement of paper PMC7645387.
